Target System: CCR2 (Homo sapiens, UniProt P41597)
Construct: expressed in transfected cells
Sequence (P41597 1-360 isoform P41597-2): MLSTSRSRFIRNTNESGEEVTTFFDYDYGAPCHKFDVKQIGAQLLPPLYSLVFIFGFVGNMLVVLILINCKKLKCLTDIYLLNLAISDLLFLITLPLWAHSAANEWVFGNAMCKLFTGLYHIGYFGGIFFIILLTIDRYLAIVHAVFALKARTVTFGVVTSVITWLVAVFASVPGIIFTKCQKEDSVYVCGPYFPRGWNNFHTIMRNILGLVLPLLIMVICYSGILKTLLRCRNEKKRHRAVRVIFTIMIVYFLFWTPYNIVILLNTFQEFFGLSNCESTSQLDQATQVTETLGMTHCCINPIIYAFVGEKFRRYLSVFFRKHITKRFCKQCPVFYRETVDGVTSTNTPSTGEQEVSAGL
Protocol Details: Figure S2a opioid peptide screen on chemokine receptors
Assay type: cell-based
Set-up: dose or concentration left out as unconfirmed
Protocol Conditions: replicate 1, read-out: CCR2 activity, ctrl+ = 100
Measured activation values are reported for all entries that follow.
Form entry: value (%) — number only.

Data request: State measured activation of the compound CC[C@H](C)[C@H](NC(=O)[C@H](CCCNC(=N)N)NC(=O)[C@H](CCCNC(=N)N)NC(=O)[C@H](CC(C)C)NC(=O)[C@H](Cc1ccccc1)NC(=O)CNC(=O)CNC(=O)[C@@H](N)Cc1ccc(O)cc1)C(=O)N[C@@H](CCCNC(=N)N)C(=O)N1CCC[C@H]1C(=O)N[C@@H](CCCCN)C(=O)N[C@@H](CC(C)C)C(=O)N[C@@H](CCCCN)C(=O)O [Dynorphin 1-13] with CCR2 (Homo sapiens, UniProt P41597).
Data returned: -0.833

Data request: State measured activation of the compound CC(C)C[C@H](NC(=O)[C@H](Cc1ccccc1)NC(=O)CNC(=O)CNC(=O)[C@@H](N)Cc1ccc(O)cc1)C(=O)N[C@@H](CCCN=C(N)N)C(=O)N[C@@H](CCCN=C(N)N)C(=O)N[C@@H](CCC(N)=O)C(=O)N[C@@H](Cc1ccccc1)C(=O)N[C@@H](CCCCN)C(=O)N[C@H](C(=O)N[C@H](C(=O)N[C@H](C(=O)O)[C@@H](C)O)C(C)C)C(C)C [Dynorphin B] with CCR2 (Homo sapiens, UniProt P41597).
Data returned: 0.688

Data request: State measured activation of the compound CC[C@H](C)[C@H](NC(=O)[C@H](CCCNC(=N)N)NC(=O)[C@H](CCCNC(=N)N)NC(=O)[C@H](CC(C)C)NC(=O)[C@H](Cc1ccccc1)NC(=O)CNC(=O)CN)C(=O)N[C@@H](CCCNC(=N)N)C(=O)N1CCC[C@H]1C(=O)N[C@@H](CCCCN)C(=O)N[C@@H](CC(C)C)C(=O)N[C@@H](CCCCN)C(=O)N[C@@H](Cc1c[nH]c2ccccc12)C(=O)N[C@@H](CC(=O)O)C(=O)N[C@@H](CC(N)=O)C(=O)N[C@@H](CCC(N)=O)C(=O)O [Dynorphin 2-17] with CCR2 (Homo sapiens, UniProt P41597).
Data returned: 0.747

Data request: State measured activation of the compound CSCC[C@H](NC(=O)[C@H](Cc1ccccc1)NC(=O)CNC(=O)CNC(=O)[C@@H](N)Cc1ccc(O)cc1)C(=O)N[C@@H](CCCNC(=N)N)C(=O)N[C@@H](CCCNC(=N)N)C(=O)N[C@H](C(N)=O)C(C)C [Adrenorphin] with CCR2 (Homo sapiens, UniProt P41597).
Data returned: -0.901

Data request: State measured activation of the compound CC[C@H](C)[C@H](NC(=O)[C@H](CCCNC(=N)N)NC(=O)[C@H](CCCNC(=N)N)NC(=O)[C@H](CC(C)C)NC(=O)[C@H](Cc1ccccc1)NC(=O)CNC(=O)CNC(=O)[C@@H](N)Cc1ccc(O)cc1)C(=O)N[C@@H](CCCNC(=N)N)C(=O)N1CCC[C@H]1C(=O)N[C@@H](CCCCN)C(=O)N[C@@H](CC(C)C)C(=O)N[C@@H](CCCCN)C(=O)N[C@@H](Cc1c[nH]c2ccccc12)C(=O)N[C@@H](CC(=O)O)C(=O)N[C@@H](CC(N)=O)C(=O)N[C@@H](CCC(N)=O)C(=O)O [Dynorphin A] with CCR2 (Homo sapiens, UniProt P41597).
Data returned: -0.0585

---

Measured activation values are reported for all entries that follow.
Target System: CCR10 (Homo sapiens, UniProt P46092)
Construct: expressed in transfected cells
Sequence (P46092 1-362): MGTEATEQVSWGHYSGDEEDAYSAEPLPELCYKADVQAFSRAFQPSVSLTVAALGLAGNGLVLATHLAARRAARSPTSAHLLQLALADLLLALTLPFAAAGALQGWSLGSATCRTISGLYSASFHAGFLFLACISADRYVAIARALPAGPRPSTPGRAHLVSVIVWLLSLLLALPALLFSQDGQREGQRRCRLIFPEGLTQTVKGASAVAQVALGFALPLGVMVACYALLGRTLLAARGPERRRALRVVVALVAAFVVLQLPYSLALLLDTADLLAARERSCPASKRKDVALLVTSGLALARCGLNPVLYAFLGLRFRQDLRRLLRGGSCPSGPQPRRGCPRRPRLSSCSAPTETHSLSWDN
Protocol Details: Figure S2a opioid peptide screen on chemokine receptors
Format: cell-based
Set-up: dose or concentration left out as unconfirmed
Protocol Conditions: replicate 3, read-out: CCR10 activity, ctrl+ = 100
Starred links: 1 amine or outer side, 2 acyl side, 3 side chain; linkers in the order of their positions; H or OH if unused. Non-standard residues stand in square brackets, D forms with d. Residues, ends and D or L forms follow the SMILES beside them. X1 = N[C@@H](Cc1ccccc1)CN(CC(=O)[*:2])[*:1]
Form entry: value (%) — number only.

CSCC[C@H](NC(=O)[C@H](Cc1ccccc1)NC(=O)CNC(=O)CNC(=O)[C@@H](N)Cc1ccc(O)cc1)C(=O)N[C@@H](CCCNC(=N)N)C(=O)N[C@@H](CCCNC(=N)N)C(=O)N[C@H](C(N)=O)C(C)C [Adrenorphin]
-2
CC[C@H](C)[C@H](NC(=O)[C@H](CCCNC(=N)N)NC(=O)[C@H](CCCNC(=N)N)NC(=O)[C@H](CC(C)C)NC(=O)[C@H](Cc1ccccc1)NC(=O)CNC(=O)CNC(=O)[C@@H](N)Cc1ccc(O)cc1)C(=O)N[C@@H](CCCNC(=N)N)C(=O)N1CCC[C@H]1C(=O)N[C@@H](CCCCN)C(=O)N[C@@H](CC(C)C)C(=O)N[C@@H](CCCCN)C(=O)N[C@@H](Cc1c[nH]c2ccccc12)C(=O)N[C@@H](CC(=O)O)C(=O)N[C@@H](CC(N)=O)C(=O)N[C@@H](CCC(N)=O)C(=O)O [Dynorphin A]
4.56
C[C@H](NC(=O)CNC(=O)[C@@H](NC(=O)[C@H](Cc1ccccc1)NC(=O)CNC(=O)CNC(=O)[C@@H](N)Cc1ccccc1)[C@@H](C)O)C(=O)N[C@@H](CCCNC(=N)N)C(=O)N[C@@H](CCCCN)C(=O)N[C@@H](CO)C(=O)N[C@@H](C)C(=O)N[C@@H](CCCNC(=N)N)C(=O)N[C@@H](CCCCN)C(N)=O [Nociceptin 1-13]
3.57

Data request: State measured activation of the molecule C[C@H](NC(=O)CNC(=O)[C@@H](NC(=O)[C@H](Cc1ccccc1)NC(=O)CNC(=O)CNC[C@@H](N)Cc1ccccc1)[C@@H](C)O)C(=O)N[C@@H](CCCNC(=N)N)C(=O)N[C@@H](CCCCN)C(=O)N[C@@H](CO)C(=O)N[C@@H](C)C(=O)N[C@@H](CCCNC(=N)N)C(=O)N[C@@H](CCCCN)C(N)=O [FG Nociceptin 1-13] (H-[X1]GFTGARKSARK-NH2) with CCR10 (Homo sapiens, UniProt P46092).
Data returned: 7.95

---

Target System: UniProt:Q9NPB9
Sequence (Q9NPB9 whole entry): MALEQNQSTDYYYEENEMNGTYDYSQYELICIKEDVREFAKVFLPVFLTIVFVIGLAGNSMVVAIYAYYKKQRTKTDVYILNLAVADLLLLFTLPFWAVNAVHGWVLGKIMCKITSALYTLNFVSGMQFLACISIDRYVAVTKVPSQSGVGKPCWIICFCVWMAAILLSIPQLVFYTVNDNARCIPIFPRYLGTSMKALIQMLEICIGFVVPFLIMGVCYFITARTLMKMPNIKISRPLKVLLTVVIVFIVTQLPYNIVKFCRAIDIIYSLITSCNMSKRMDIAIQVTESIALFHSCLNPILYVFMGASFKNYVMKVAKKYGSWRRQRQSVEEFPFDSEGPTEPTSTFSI
Protocol Details: Figure S2a opioid peptide screen on chemokine receptors
Design: dose or concentration left out as unconfirmed
Protocol Conditions: read-out: ACKR4 activity, ctrl+ = 100, Figure S2a; replicate 2
Starred links: 1 amine or outer side, 2 acyl side, 3 side chain; linkers in the order of their positions; H or OH if unused. Non-standard residues stand in square brackets, D forms with d. Residues, ends and D or L forms follow the SMILES beside them. X1 = N[C@@H](Cc1ccccc1)CN(CC(=O)[*:2])[*:1]
Metric: activation (%)
Form entry: value (%) — number only.

CC(C)C[C@H](NC(=O)[C@H](Cc1ccccc1)NC(=O)CNC(=O)CNC(=O)[C@@H](N)Cc1ccc(O)cc1)C(=O)N[C@@H](CCCN=C(N)N)C(=O)N[C@@H](CCCN=C(N)N)C(=O)N[C@@H](CCC(N)=O)C(=O)N[C@@H](Cc1ccccc1)C(=O)N[C@@H](CCCCN)C(=O)N[C@H](C(=O)N[C@H](C(=O)N[C@H](C(=O)O)[C@@H](C)O)C(C)C)C(C)C [Dynorphin B]
-0.628

Data request: Write down activation measured for item C[C@H](NC(=O)CNC(=O)[C@@H](NC(=O)[C@H](Cc1ccccc1)NC(=O)CNC(=O)CNC[C@@H](N)Cc1ccccc1)[C@@H](C)O)C(=O)N[C@@H](CCCNC(=N)N)C(=O)N[C@@H](CCCCN)C(=O)N[C@@H](CO)C(=O)N[C@@H](C)C(=O)N[C@@H](CCCNC(=N)N)C(=O)N[C@@H](CCCCN)C(N)=O [FG Nociceptin 1-13] (H-[X1]GFTGARKSARK-NH2)
Data returned: -0.784
